Numbers sourced from the RNAGym collection of RNA variant scans (doi:10.1126/science.aae0568).

Quick list: yeast fitness per entry.
B1: tRNA (parent)
chain: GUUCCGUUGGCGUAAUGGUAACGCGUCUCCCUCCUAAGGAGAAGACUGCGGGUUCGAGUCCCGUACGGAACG

- Variants of: B1
- TEST SUMMARY: yeast fitness relative to wild type (ratio to wild type); higher = fitter; tRNA-Arg(CCU), competitive growth, 37 C, YPD
Variants at the floor of the assay were thinned out.
A bare number is all that is needed in reply.

A selection of reference data follows.
>  <VARIANT IDENTIFIER>
U3A G12C A21C A36C A70U

>  <yeast fitness>
0.553

$$$$
>  <VARIANT IDENTIFIER>
A20U G25A C49G

>  <yeast fitness>
0.619

$$$$
>  <VARIANT IDENTIFIER>
C22G U28C

>  <yeast fitness>
0.853

$$$$
>  <VARIANT IDENTIFIER>
U13C U53A

>  <yeast fitness>
0.674

$$$$
>  <VARIANT IDENTIFIER>
C4U U8A U32G U35A C62U

>  <yeast fitness>
0.707

$$$$
>  <VARIANT IDENTIFIER>
C27U G48A C49U

>  <yeast fitness>
1.01

$$$$
>  <VARIANT IDENTIFIER>
C11A C29G C66U

>  <yeast fitness>
0.525

$$$$
>  <VARIANT IDENTIFIER>
C24G C33G G51A U53A G56A G67C

>  <yeast fitness>
0.541

$$$$

Name the recorded yeast fitness for C24G G63A .
0.554

Name the recorded yeast fitness for U7G A20U C46G .
0.562

Name the recorded yeast fitness for C11U G12C U26C A40U A57U .
0.612
